Reference source for all entries: ChEMBL document CHEMBL3608296

target: Carbonic anhydrase 12 (Homo sapiens); conditions: at 0.1 µM
Description: Inhibition of human carbonic anhydrase 12 at 10^-7 M preincubated for 15 mins by stopped flow CO2 hydration method relative to control
property: inhibition (%)

COc1cc(CC(=O)N2CCN(C(=O)Nc3ccc(S(N)(=O)=O)cc3)CC2)cc(OC)c1O	49
NS(=O)(=O)c1ccc(NC(=O)N2CCN(C(=O)Cc3ccc(Cl)cc3)CC2)cc1	47
NS(=O)(=O)c1ccc(NC(=O)N2CCN(C(=O)Cc3ccccc3)CC2)cc1	47
NS(=O)(=O)c1ccc(NC(=O)N2CCN(C(=O)COc3ccc(Cl)cc3)CC2)cc1	49
NS(=O)(=O)c1ccc(NC(=O)N2CCN(C(=O)COc3ccc(Cl)cc3Cl)CC2)cc1	48
NS(=O)(=O)c1ccc(NC(=O)N2CCN(C(=O)Cc3ccc(Cl)cc3Cl)CC2)cc1	48
COc1ccc(CC(=O)N2CCN(C(=O)Nc3ccc(S(N)(=O)=O)cc3)CC2)cc1	49
NS(=O)(=O)c1ccc(NC(=O)N2CCN(C(=O)Cc3ccc(O)cc3)CC2)cc1	49
NS(=O)(=O)c1ccc(NC(=O)N2CCN(C(=O)COc3ccccc3)CC2)cc1	49

---

molecular target: Carbonic anhydrase 9 (Homo sapiens, UniProt Q16790); conditions: at 1 µM
Description: Inhibition of human carbonic anhydrase 9 at 10^-6 M preincubated for 15 mins by stopped flow CO2 hydration method relative to control
property: inhibition (%)

NS(=O)(=O)c1ccc(NC(=O)N2CCN(C(=O)COc3ccccc3)CC2)cc1	55
NS(=O)(=O)c1ccc(NC(=O)N2CCN(C(=O)Cc3ccc(Cl)cc3)CC2)cc1	51
NS(=O)(=O)c1ccc(NC(=O)N2CCN(C(=O)Cc3ccccc3)CC2)cc1	54
NS(=O)(=O)c1ccc(NC(=O)N2CCN(C(=O)Cc3ccc(Cl)cc3Cl)CC2)cc1	54
NS(=O)(=O)c1ccc(NC(=O)N2CCN(C(=O)COc3ccc(Cl)cc3Cl)CC2)cc1	56

---

target: Carbonic anhydrase 12 (Homo sapiens) (UniProt O43570); conditions: at 0.01 µM
Sequence (O43570 whole entry): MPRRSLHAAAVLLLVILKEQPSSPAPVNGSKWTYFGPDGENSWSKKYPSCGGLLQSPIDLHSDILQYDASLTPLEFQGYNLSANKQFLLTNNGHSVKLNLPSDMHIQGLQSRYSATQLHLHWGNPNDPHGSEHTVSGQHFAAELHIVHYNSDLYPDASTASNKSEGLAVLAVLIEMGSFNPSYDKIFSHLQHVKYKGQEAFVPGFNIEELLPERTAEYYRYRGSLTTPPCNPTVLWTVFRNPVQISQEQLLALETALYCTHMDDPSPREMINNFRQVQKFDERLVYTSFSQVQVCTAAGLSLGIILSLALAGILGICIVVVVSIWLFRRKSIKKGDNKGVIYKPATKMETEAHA
Description: Inhibition of human carbonic anhydrase 12 at 10^-8 M preincubated for 15 mins by stopped flow CO2 hydration method relative to control
property: inhibition (%)

NS(=O)(=O)c1ccc(NC(=O)N2CCN(C(=O)Cc3ccc(O)cc3)CC2)cc1	46
COc1ccc(CC(=O)N2CCN(C(=O)Nc3ccc(S(N)(=O)=O)cc3)CC2)cc1	46
COc1cc(CC(=O)N2CCN(C(=O)Nc3ccc(S(N)(=O)=O)cc3)CC2)cc(OC)c1O	45
NS(=O)(=O)c1ccc(NC(=O)N2CCN(C(=O)COc3ccc(Cl)cc3)CC2)cc1	47
NS(=O)(=O)c1ccc(NC(=O)N2CCN(C(=O)Cc3ccc(Cl)cc3Cl)CC2)cc1	42
NS(=O)(=O)c1ccc(NC(=O)N2CCN(C(=O)Cc3ccccc3)CC2)cc1	44
NS(=O)(=O)c1ccc(NC(=O)N2CCN(C(=O)COc3ccc(Cl)cc3Cl)CC2)cc1	43
NS(=O)(=O)c1ccc(NC(=O)N2CCN(C(=O)COc3ccccc3)CC2)cc1	46
NS(=O)(=O)c1ccc(NC(=O)N2CCN(C(=O)Cc3ccc(Cl)cc3)CC2)cc1	40

---

The following compounds have recorded Ki on Carbonic anhydrase 9 (Homo sapiens).
property: Ki (nM)

Known Ki results, listed for orientation:
NS(=O)(=O)c1ccc(NC(=O)N2CCN(c3ccc(F)cc3)CC2)cc1	9.9
NS(=O)(=O)c1ccc(NC(=O)N2CCN(c3ccccn3)CC2)cc1	487
NS(=O)(=O)c1ccc(NC(=O)N2CCN(c3nccc(C(F)(F)F)n3)CC2)cc1	134

a. COc1cccc(N2CCN(C(=O)Nc3ccc(S(N)(=O)=O)cc3)CC2)c1
b. NS(=O)(=O)c1ccc(NC(=O)N2CCN(c3ncccc3C(F)(F)F)CC2)cc1
c. CC(C)(C)c1ccc(N2CCN(C(=O)Nc3ccc(S(N)(=O)=O)cc3)CC2)cc1
d. NS(=O)(=O)c1ccc(NC(=O)N2CCN(Cc3ccccc3)CC2)cc1
Exam item: Put the compounds in ascending order of Ki. Your answer should be the labels, listed in the requested order.
Marked response: a, c, b, d

---

target: Carbonic anhydrase 9 (Homo sapiens); conditions: at 0.01 µM
Description: Inhibition of human carbonic anhydrase 9 at 10^-8 M preincubated for 15 mins by stopped flow CO2 hydration method relative to control
property: inhibition (%)

NS(=O)(=O)c1ccc(NC(=O)N2CCN(C(=O)Cc3ccc(Cl)cc3)CC2)cc1	45
NS(=O)(=O)c1ccc(NC(=O)N2CCN(C(=O)COc3ccc(Cl)cc3Cl)CC2)cc1	49
NS(=O)(=O)c1ccc(NC(=O)N2CCN(C(=O)COc3ccc(Cl)cc3)CC2)cc1	47
COc1cc(CC(=O)N2CCN(C(=O)Nc3ccc(S(N)(=O)=O)cc3)CC2)cc(OC)c1O	41
NS(=O)(=O)c1ccc(NC(=O)N2CCN(C(=O)COc3ccccc3)CC2)cc1	35
NS(=O)(=O)c1ccc(NC(=O)N2CCN(C(=O)Cc3ccc(Cl)cc3Cl)CC2)cc1	48
COc1ccc(CC(=O)N2CCN(C(=O)Nc3ccc(S(N)(=O)=O)cc3)CC2)cc1	47
NS(=O)(=O)c1ccc(NC(=O)N2CCN(C(=O)Cc3ccc(O)cc3)CC2)cc1	45
NS(=O)(=O)c1ccc(NC(=O)N2CCN(C(=O)Cc3ccccc3)CC2)cc1	44

---

molecular target: Carbonic anhydrase 9 (Homo sapiens); details: at 1 µM
property: inhibition (%)

NS(=O)(=O)c1ccc(NC(=O)N2CCN(C(=O)Cc3ccc(O)cc3)CC2)cc1	52
NS(=O)(=O)c1ccc(NC(=O)N2CCN(C(=O)COc3ccc(Cl)cc3)CC2)cc1	52
COc1cc(CC(=O)N2CCN(C(=O)Nc3ccc(S(N)(=O)=O)cc3)CC2)cc(OC)c1O	55
COc1ccc(CC(=O)N2CCN(C(=O)Nc3ccc(S(N)(=O)=O)cc3)CC2)cc1	55

---

target: Carbonic anhydrase 12 (Homo sapiens) (UniProt O43570); conditions: at 1 µM
Description: Inhibition of human carbonic anhydrase 12 at 10^-6 M preincubated for 15 mins by stopped flow CO2 hydration method relative to control
property: inhibition (%)

NS(=O)(=O)c1ccc(NC(=O)N2CCN(C(=O)COc3ccc(Cl)cc3)CC2)cc1	52
COc1cc(CC(=O)N2CCN(C(=O)Nc3ccc(S(N)(=O)=O)cc3)CC2)cc(OC)c1O	51
NS(=O)(=O)c1ccc(NC(=O)N2CCN(C(=O)Cc3ccccc3)CC2)cc1	51
NS(=O)(=O)c1ccc(NC(=O)N2CCN(C(=O)Cc3ccc(Cl)cc3)CC2)cc1	51
NS(=O)(=O)c1ccc(NC(=O)N2CCN(C(=O)COc3ccccc3)CC2)cc1	51
NS(=O)(=O)c1ccc(NC(=O)N2CCN(C(=O)Cc3ccc(O)cc3)CC2)cc1	58
NS(=O)(=O)c1ccc(NC(=O)N2CCN(C(=O)Cc3ccc(Cl)cc3Cl)CC2)cc1	51
NS(=O)(=O)c1ccc(NC(=O)N2CCN(C(=O)COc3ccc(Cl)cc3Cl)CC2)cc1	51
COc1ccc(CC(=O)N2CCN(C(=O)Nc3ccc(S(N)(=O)=O)cc3)CC2)cc1	51

---

target: Carbonic anhydrase 12 (Homo sapiens); settings: at 0.001 µM
Description: Inhibition of human carbonic anhydrase 12 at 10^-9 M preincubated for 15 mins by stopped flow CO2 hydration method relative to control
property: inhibition (%)

COc1cc(CC(=O)N2CCN(C(=O)Nc3ccc(S(N)(=O)=O)cc3)CC2)cc(OC)c1O	34
NS(=O)(=O)c1ccc(NC(=O)N2CCN(C(=O)COc3ccccc3)CC2)cc1	36
NS(=O)(=O)c1ccc(NC(=O)N2CCN(C(=O)Cc3ccc(Cl)cc3)CC2)cc1	34
NS(=O)(=O)c1ccc(NC(=O)N2CCN(C(=O)Cc3ccc(Cl)cc3Cl)CC2)cc1	34
COc1ccc(CC(=O)N2CCN(C(=O)Nc3ccc(S(N)(=O)=O)cc3)CC2)cc1	34
NS(=O)(=O)c1ccc(NC(=O)N2CCN(C(=O)Cc3ccccc3)CC2)cc1	26
NS(=O)(=O)c1ccc(NC(=O)N2CCN(C(=O)Cc3ccc(O)cc3)CC2)cc1	33
NS(=O)(=O)c1ccc(NC(=O)N2CCN(C(=O)COc3ccc(Cl)cc3)CC2)cc1	30
NS(=O)(=O)c1ccc(NC(=O)N2CCN(C(=O)COc3ccc(Cl)cc3Cl)CC2)cc1	29

---

target: UniProt Q16790; details: at 0.1 µM
Description: Inhibition of human carbonic anhydrase 9 at 10^-7 M preincubated for 15 mins by stopped flow CO2 hydration method relative to control
property: inhibition (%)

NS(=O)(=O)c1ccc(NC(=O)N2CCN(C(=O)Cc3ccc(Cl)cc3Cl)CC2)cc1	49
NS(=O)(=O)c1ccc(NC(=O)N2CCN(C(=O)COc3ccc(Cl)cc3)CC2)cc1	48
COc1cc(CC(=O)N2CCN(C(=O)Nc3ccc(S(N)(=O)=O)cc3)CC2)cc(OC)c1O	52
NS(=O)(=O)c1ccc(NC(=O)N2CCN(C(=O)COc3ccccc3)CC2)cc1	53
NS(=O)(=O)c1ccc(NC(=O)N2CCN(C(=O)Cc3ccc(O)cc3)CC2)cc1	48
NS(=O)(=O)c1ccc(NC(=O)N2CCN(C(=O)COc3ccc(Cl)cc3Cl)CC2)cc1	51
NS(=O)(=O)c1ccc(NC(=O)N2CCN(C(=O)Cc3ccc(Cl)cc3)CC2)cc1	47
NS(=O)(=O)c1ccc(NC(=O)N2CCN(C(=O)Cc3ccccc3)CC2)cc1	49
COc1ccc(CC(=O)N2CCN(C(=O)Nc3ccc(S(N)(=O)=O)cc3)CC2)cc1	49

---

target: Carbonic anhydrase 9 (Homo sapiens); conditions: at 0.001 µM
Description: Inhibition of human carbonic anhydrase 9 at 10^-9 M preincubated for 15 mins by stopped flow CO2 hydration method relative to control
property: inhibition (%)

Known inhibition results, listed for orientation:
NS(=O)(=O)c1ccc(NC(=O)N2CCN(C(=O)Cc3ccc(O)cc3)CC2)cc1	34
COc1ccc(CC(=O)N2CCN(C(=O)Nc3ccc(S(N)(=O)=O)cc3)CC2)cc1	36
NS(=O)(=O)c1ccc(NC(=O)N2CCN(C(=O)COc3ccc(Cl)cc3)CC2)cc1	36
COc1cc(CC(=O)N2CCN(C(=O)Nc3ccc(S(N)(=O)=O)cc3)CC2)cc(OC)c1O	37

a. NS(=O)(=O)c1ccc(NC(=O)N2CCN(C(=O)Cc3ccccc3)CC2)cc1
b. NS(=O)(=O)c1ccc(NC(=O)N2CCN(C(=O)COc3ccccc3)CC2)cc1
Exam item: Parameter metric = inhibition. Return the lower-valued option from a and b . Kindly give the label for the entry you pick.
Marked response: b
